Entries and their measured pIC50 follow.
System: 435261-313-R-J1-PDC complex spheroid viability;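 note: spheroids exposed to the agents for seven days before readout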
Assay: Anticancer human tumor 435261-313-R-J1-PDC patient-derived colon adenocarcinoma cell line growth inhibition [GQUAD]
Conditions: curve of first compound; second compound 1 µM
pIC50: −log10 of the molar value.

# count of solved cases: 6
[
  {
    "compound": "CCCS(=O)(=O)Nc1ccc(F)c(C(=O)c2c[nH]c3ncc(-c4ccc(Cl)cc4)cc23)c1F + CN(C)c1ccc(Nc2c3ccc(NC(=O)CCN4CCCC4)cc3nc3cc(NC(=O)CCN4CCCC4)ccc23)cc1",
    "tested.target": "435261-313-R-J1-PDC complex spheroid viability",
    "property.label": "pIC50",
    "measured": 5.25
  },
  {
    "compound": "COc1ncnc(C2CC2)c1-c1ncc2cnn(Cc3ccc(-c4nc(C(F)(F)F)cn4C(C)C)cc3)c2n1 + Cc1cnc(CNC(=O)c2c(=O)c3ccc(N4CCCN(C)CC4)nc3n3c2sc2ccccc23)cn1",
    "tested.target": "435261-313-R-J1-PDC complex spheroid viability",
    "property.label": "pIC50",
    "measured": "> 7.50"
  },
  {
    "compound": "CC1COCCN1c1cc(C2(O)CC3CCC(C2)O3)c2cnn(-c3ccn[nH]3)c2n1 (stereo not drawn) + CN(C)c1ccc(Nc2c3ccc(NC(=O)CCN4CCCC4)cc3nc3cc(NC(=O)CCN4CCCC4)ccc23)cc1",
    "tested.target": "435261-313-R-J1-PDC complex spheroid viability",
    "property.label": "pIC50",
    "measured": 6.59
  },
  {
    "compound": "CC1COCCN1c1cc(C2(S(C)(=N)=O)CC2)nc(-c2ccnc3[nH]ccc23)n1 (stereo not drawn) + Cc1cnc(CNC(=O)c2c(=O)c3ccc(N4CCCN(C)CC4)nc3n3c2sc2ccccc23)cn1",
    "tested.target": "435261-313-R-J1-PDC complex spheroid viability",
    "property.label": "pIC50",
    "measured": "> 7.50"
  },
  {
    "compound": "Nc1ccn(C2OC(CO)C(O)C2(F)F)c(=O)n1 (stereo not drawn) + Cc1cnc(CNC(=O)c2c(=O)c3ccc(N4CCCN(C)CC4)nc3n3c2sc2ccccc23)cn1",
    "tested.target": "435261-313-R-J1-PDC complex spheroid viability",
    "property.label": "pIC50",
    "measured": "> 7.50"
  },
  {
    "compound": "CC(C)n1c(=O)n(C)c2cnc3cc(F)c(-c4ccc(OCCCN5CCCCC5)nc4)cc3c21 + Cc1cnc(CNC(=O)c2c(=O)c3ccc(N4CCCN(C)CC4)nc3n3c2sc2ccccc23)cn1",
    "tested.target": "435261-313-R-J1-PDC complex spheroid viability",
    "property.label": "pIC50",
    "measured": "> 7.50"
  }
]

// query Any idea what its pIC50 is? The compound is CC(=O)O[C@H]1C(=O)[C@@]2(C)[C@H]([C@H](OC(=O)c3ccccc3)[C@]3(O)C[C@H](OC(=O)[C@H](O)[C@@H](NC(=O)c4ccccc4)c4ccccc4)C(C)=C1C3(C)C)[C@]1(OC(C)=O)CO[C@@H]1C[C@@H]2O + Cc1cnc(CNC(=O)c2c(=O)c3ccc(N4CCCN(C)CC4)nc3n3c2sc2ccccc23)cn1
// result > 7.50

// query Find the recorded pIC50 belonging to C#Cc1c(F)ccc2cc(O)cc(-c3ncc4c(N5CC6CCC(C5)N6)nc(OCC56CCCN5CC(F)C6)nc4c3F)c12 (stereo not drawn) + CN(C)c1ccc(Nc2c3ccc(NC(=O)CCN4CCCC4)cc3nc3cc(NC(=O)CCN4CCCC4)ccc23)cc1 and report it.
// result < 5.00
